# credit: the supplement of paper PMC10065799

# system_name: FGFR3 (UniProt P22607)
# Sequence (P22607 whole entry, looked up): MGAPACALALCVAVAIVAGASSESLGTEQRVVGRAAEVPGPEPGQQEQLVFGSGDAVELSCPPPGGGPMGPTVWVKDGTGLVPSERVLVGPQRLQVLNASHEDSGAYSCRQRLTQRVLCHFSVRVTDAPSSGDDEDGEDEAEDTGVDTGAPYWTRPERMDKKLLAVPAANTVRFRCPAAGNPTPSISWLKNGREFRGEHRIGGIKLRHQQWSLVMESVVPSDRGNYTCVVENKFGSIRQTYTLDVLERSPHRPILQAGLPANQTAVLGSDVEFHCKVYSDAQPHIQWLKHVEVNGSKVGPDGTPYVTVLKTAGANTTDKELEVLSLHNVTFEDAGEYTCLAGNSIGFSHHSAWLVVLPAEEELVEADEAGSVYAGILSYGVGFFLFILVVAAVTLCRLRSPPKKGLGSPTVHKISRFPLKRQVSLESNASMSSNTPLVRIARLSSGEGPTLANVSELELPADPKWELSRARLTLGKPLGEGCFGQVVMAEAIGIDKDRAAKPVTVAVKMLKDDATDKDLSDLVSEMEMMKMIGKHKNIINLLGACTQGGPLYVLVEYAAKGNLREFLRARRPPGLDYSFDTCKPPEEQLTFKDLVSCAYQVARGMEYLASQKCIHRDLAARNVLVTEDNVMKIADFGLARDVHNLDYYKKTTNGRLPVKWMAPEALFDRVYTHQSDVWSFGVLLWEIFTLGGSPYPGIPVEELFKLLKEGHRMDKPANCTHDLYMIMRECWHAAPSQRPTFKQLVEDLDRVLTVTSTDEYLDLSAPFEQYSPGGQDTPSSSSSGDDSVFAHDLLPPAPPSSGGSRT
# protocol: phosphorylation enrichment, bacterial display (enrichment ratio); higher = better substrate or ligand; peptides without Tyr show the background;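 also: 11-residue human phosphosite peptides and single-mutation variants displayed on the E. coli surface, counted by deep sequencing, each peptide's frequency after selection divided by its frequency in the unselected input library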;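 also: frequency after pTyr selection over input frequency; kinase dosed for 20-30% of maximal phosphorylation in three min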
I'd be grateful if you could share measured phosphorylation enrichment for these entries.
Form: value (number only, do not type unit).

Provide one value: measured phosphorylation enrichment of RDIHDYIKHLG [UNC13C_Y308]
0.474

In one line, give reported phosphorylation enrichment of the entry VCRHNYGVVES [HLA-DRB1_Y112_Y107V] .
0.566

Give a short answer stating reported phosphorylation enrichment for AEYGLYRAMVR [VSX2_Y222_G223R] .
0.679

Supply reported phosphorylation enrichment belonging to this sequence: HELFVYKSDEN [DOCK3_Y548_C550S_YF]
1.13

Provide only the value of recorded phosphorylation enrichment for FLTSSYINIST [IL23R_Y178_YF]
0.489

Provide one value: measured phosphorylation enrichment of SPFEVYVDKSQ [FLNA_Y373]
0.726

Give reported phosphorylation enrichment value for VHNLNYYKKTT [FGFR3_Y647_D646N]
0.665

Determine from records and report phosphorylation enrichment for GRPMDYHVSIT [OTOF_Y254_Q255H]
0.577

Look up and state reported phosphorylation enrichment for PLDGEYFILQI [TP53_Y327_T329I]
12.9

Specify measured phosphorylation enrichment for TYVVLYDAELT [ERCC4_Y581_R576T] .
1.52

Provide phosphorylation enrichment value for the following sequence: ERDYTYEELLN [EIF2S2_Y176]
0.855

Give phosphorylation enrichment for KNILCYIQGGS [HYDIN_Y4610]
0.761

Return the recorded phosphorylation enrichment value; entry: VFDMLYQVANL [USP24_Y1087_L1089V]
0.923

Hello, please tell me recorded phosphorylation enrichment for this one: APQYTYAQGGQ [FLNA_Y1763]
0.53

Report phosphorylation enrichment, nothing else, for this sequence: CSHKFYGKQCC [ADAMTS16_Y1211]
0.499

Return value of phosphorylation enrichment for input ESMQSYDLDFP [UNC13B_Y243_D238E_YF] , no commentary.
0.63

Give reported phosphorylation enrichment value for SRPTQYSSFSC [SPEM2_Y104]
0.578

Consider the sequence KSIDEYLKLVG [RASAL2_Y381_E379D] and give its recorded phosphorylation enrichment.
0.445

Report measured phosphorylation enrichment; entry is HAKKNYGNSSV [HDX_Y197]
0.281

Respond only with phosphorylation enrichment recorded for QVMDGYPIPIG [MMP14_Y353_M355I]
0.572

State, in one line, measured phosphorylation enrichment of DHKRQYELLKL [KIF4B_Y684_R680H]
0.52

Fill in phosphorylation enrichment for record FEHVGYTTLNR [CHN1_Y148_YF]
0.458

Quote phosphorylation enrichment reported for QSQQAYQEAFE [YWHAZ_Y149] please.
0.693

Report phosphorylation enrichment for LEISPYMLSGP [LRRK2_Y1718_R1723P]
0.983

Entry KGKLIYLLRDS [NXPE1_Y350_G353R] needs its phosphorylation enrichment filled in; supply it.
0.599

Provide phosphorylation enrichment value for the following sequence: KVKEQYQDVPM [PKP2_Y659]
0.48

Identify the reported phosphorylation enrichment for the following entry. PVVKLYATDGR [RP1_Y199]
0.802
